Below, each entry is listed with its recorded cytotoxicity at 10 µM.
experiment: Toxicity liver stage against HepG2, at 10uM; type: cell-based; parameters: test concentration 10 uM, cell line HepG2-A16-CD81EGFP; conditions: human, HepG2-A16-CD81EGFP cells; read-out: INHIBITION
Report only the number, with the unit % understood.

Note cytotoxicity at 10 µM for the molecule shown: Cc1nnc([C@@H]2CC[C@@H]3[C@@H](CCN3C3CCOCC3)O2)o1
8.58

Note cytotoxicity at 10 µM for the molecule shown: Cc1ccc(-c2nc(CN3CCCC(Cn4cncn4)C3)cs2)o1 (stereo not given)
-22.2

Note cytotoxicity at 10 µM for the molecule shown: OC1CCN(c2ccnc(NCCc3ccccc3Cl)n2)CC1
16.5

###

assay: Toxicity liver stage against HepG2, at 10uM; assay type: cell-based; parameters: test concentration 10 uM, cell line HepG2-A16-CD81EGFP; details: human, HepG2-A16-CD81EGFP cells; read-out: INHIBITION
measurement-label: cytotoxicity at 10 µM (%)
Report only the number, with the unit % understood.

Check out these entries, answers already filled in.
[[record]]
compound = "COc1cc(C(=O)N2CCCC(CNS(C)(=O)=O)C2)ccc1C (configuration not stated)"
measurement_label = "cytotoxicity at 10 µM"
measurement = -21.6

[[record]]
compound = "O=S1(=O)C[C@@H]2[C@H](C1)N(Cc1cc(Cl)cc(Cl)c1)CCN2CCO"
measurement_label = "cytotoxicity at 10 µM"
measurement = 0.303

[[record]]
compound = "Cn1cc(NS(=O)(=O)c2ccc(F)c(F)c2)ccc1=O"
measurement_label = "cytotoxicity at 10 µM"
measurement = -9.59

[[record]]
compound = "Cn1ccc(C(=O)NCCOc2ccc3c(c2)CCC3)cc1=O"
measurement_label = "cytotoxicity at 10 µM"
measurement = 3.68

[[record]]
compound = "O=C(NCc1ccncc1)C1CN(c2nc3ccccc3s2)CCN1 (configuration not stated)"
measurement_label = "cytotoxicity at 10 µM"
measurement = -105

[[record]]
compound = "CC(C)NC(=O)N1CC[C@@H]2CN(S(C)(=O)=O)CCO[C@@H]2C1"
measurement_label = "cytotoxicity at 10 µM"
measurement = -102

[[record]]
compound = "N#Cc1ccc(SCCC(=O)Nc2ccc(CC(N)=O)cc2)cc1"
measurement_label = "cytotoxicity at 10 µM"
measurement = -5.25

[[record]]
compound = "COCC(=O)N1C[C@H]2CC[C@@]3(N=C(c4ccccc4)NC3=O)[C@H]2C1"
measurement_label = "cytotoxicity at 10 µM"
measurement = 3.83

[[record]]
compound = "CN(CC(=O)NC(C)(C)C)C(=O)C1CC(c2cccc(F)c2)=NO1 (configuration not stated)"
measurement_label = "cytotoxicity at 10 µM"
measurement = 19.5

[[record]]
compound = "CC(=O)N1CCCN(C(=O)NCc2cc[nH]n2)CC1"
measurement_label = "cytotoxicity at 10 µM"
measurement = -6.44


Note cytotoxicity at 10 µM for the compound shown: COCCN1CCC2(CC1)CC(NCc1ccc(C)s1)c1ccccc12 (configuration not stated)
-121

Note cytotoxicity at 10 µM for the compound shown: CN1CCCC1(CCCc1cccnc1)C(=O)NCc1nccn1C (configuration not stated)
0.732

###

assay: Toxicity liver stage against HepG2, at 10uM; format: cell-based; parameters: test concentration 10 uM, cell line HepG2-A16-CD81EGFP; conditions: human, HepG2-A16-CD81EGFP cells; read-out: INHIBITION
measurement-label: cytotoxicity at 10 µM (%)
Report only the number, with the unit % understood.

Check out these entries, answers already filled in.
[[record]]
molecule = "CNC(=O)C1Cn2ccnc2C2(CCN(c3ccc(C)nn3)CC2)O1 (stereo unspecified)"
measurement_label = "cytotoxicity at 10 µM"
unit_descriptor = "%"
measurement = -137

[[record]]
molecule = "CCc1nccn1C1CCCN(C(=O)c2cnc3onc(C)c3c2)C1 (stereo unspecified)"
measurement_label = "cytotoxicity at 10 µM"
unit_descriptor = "%"
measurement = -15.9

[[record]]
molecule = "N#Cc1cccc(S(=O)(=O)NC(=O)c2csc(-c3ccco3)n2)c1"
measurement_label = "cytotoxicity at 10 µM"
unit_descriptor = "%"
measurement = 4.34

[[record]]
molecule = "CN1C(Cn2cccn2)C[C@@H]2CN(Cc3cccnc3)CC[C@@H]21 (stereo partly specified)"
measurement_label = "cytotoxicity at 10 µM"
unit_descriptor = "%"
measurement = 8.01

[[record]]
molecule = "Cn1cc(CN2C[C@@H]3CN(Cc4ccoc4)CCO[C@@H]3C2)cn1"
measurement_label = "cytotoxicity at 10 µM"
unit_descriptor = "%"
measurement = 6.97


Note cytotoxicity at 10 µM for the molecule shown: COc1ncccc1N(C)C(=O)Cn1cc(-c2ccccc2)nn1
-1.11

Note cytotoxicity at 10 µM for the molecule shown: COc1cccc(N2CCN(CC[C@H](O)c3ccccc3)CC2=O)c1
3.61
